tested on: Fibroblast; experiment: Multiplex assay against human fibroblast; assay type: toxicity, cell-based; conditions: 24 h, 1 µM, compound concentration 1 uM, replicate 1
Listed below: Population Tubulin-Different-Phenotype (%) values for each entry.
MEASUREMENT TYPE: Population Tubulin-Different-Phenotype (%)

INSERT INTO results (molecule, measured_on, units_of_measure, numeric_result) VALUES
  ('CCCS(=O)(=O)c1nc(NC2CC2)cc(-c2ccc3c(ccn3C3CC(C)(C)NC(C)(C)C3)c2)n1', 'Fibroblast', '%', 39),
  ('CCOC(=O)c1c(C)[nH]c2ccc3c(c12)CN1CCc2cc(OC)ccc2C1O3 (configuration not stated)', 'Fibroblast', '%', 48),
  ('C=CCn1c(=O)c2cnc(Nc3ccc(N4CCN(C)CC4)cc3)nc2n1-c1cccc(C(C)(C)O)n1 [ADAVOSERTIB]', 'Fibroblast', '%', 7),
  ('Cn1nc(C(F)(F)F)cc1-c1cnc(N2CCc3cc(S(=O)(=O)Nc4c(F)cc(Cl)cc4F)cc(N4CCCC4=O)c32)nc1 [TP-020]', 'Fibroblast', '%', 55),
  ('CCCS(=O)(=O)Nc1ccc(F)c(C(=O)c2c[nH]c3ncc(Cl)cc23)c1F [PLX-4720]', 'Fibroblast', '%', 22),
  ('CCc1cccc(CC)c1NC(=O)c1nn(C)c2c1CCc1cnc(Nc3ccc(C(=O)NC4CCN(C)CC4)cc3OC(F)(F)F)nc1-2', 'Fibroblast', '%', 53),
  ('CCn1cc(-c2ccnc3[nH]c(-c4cccc(CN(C)C)c4)cc23)c(-c2ccc(NC(=O)N(C)C)cc2)n1 [GSK-1070916]', 'Fibroblast', '%', 5),
  ('CNC(=O)c1ccc(Nc2nc(OC3CCCC3)c3c(-c4ccc5nc(C)oc5c4)c[nH]c3n2)c(OC)c1', 'Fibroblast', '%', 79),
  ('O=C1NC(=O)C(c2cnc3ccccn23)=C1c1cn2c3c(cc(F)cc13)CN(C(=O)N1CCCCC1)CC2 [LY-2090314]', 'Fibroblast', '%', 86),
  ('Cl.Oc1ccc2c3c1O[C@H]1c4[nH]c5c(c4C[C@@]4(O)[C@@H](C2)N(CC2CC2)CC[C@]314)C[C@@]1(O)[C@H]2Cc3ccc(O)c4c3[C@@]1(CCN2CC1CC1)[C@H]5O4', 'Fibroblast', '%', 43),
  ('CN[C@@H]1C[C@H]2O[C@@](C)([C@@H]1OC)n1c3ccccc3c3c4c(c5c6ccccc6n2c5c31)C(=O)NC4 [STAUROSPORINE]', 'Fibroblast', '%', 16),
  ('CCN1CCN(c2ccc(Nc3cc(N(C)C(=O)Nc4c(Cl)c(OC)cc(OC)c4Cl)ncn3)cc2)CC1 [INFIGRATINIB]', 'Fibroblast', '%', 40),
  ('COc1ccc(S(=O)(=O)N(CCO)c2ccccc2CN(C)C/C=C/c2ccc(Cl)cc2)cc1.O=P(O)(O)O', 'Fibroblast', '%', 90),
  ('O=C(Nc1ccc(-c2ccnc(Nc3ccc(N4CCOCC4)cc3)n2)cc1)[C@@H]1CCCN1', 'Fibroblast', '%', 35),
  ('CN(C)C(=O)C(CCN1CCC(O)(c2ccc(Cl)cc2)CC1)(c1ccccc1)c1ccccc1.Cl [LOPERAMIDE HYDROCHLORIDE]', 'Fibroblast', '%', 55),
  ('CN1C2CCC1CC(OC(c1ccc(F)cc1)c1ccc(F)cc1)C2.Cl (configuration not stated)', 'Fibroblast', '%', 58),
  ('O=C1N/C(=N/c2ccccc2F)S/C1=C\c1ccc(C(=O)O)cc1', 'Fibroblast', '%', 41);

Data provenance: ChEMBL document CHEMBL4689842
